PROTOCOL_DESCRIPTION: in vitro
CONDITION_DESCRIPTION: human, HepG2 cells
Description: Cytotoxicity against human HepG2 cells assessed as cell viability at 50 uM after 24 hrs by MTT assay relative to control

MOLECULE	viability at 24 h, 50 µM, %
Nc1c2c(nc3c1C(c1cccc(F)c1)n1c(=O)c4ccccc4c(=O)n1-3)CCCC2 (stereo not given)	78.8
Nc1c2c(nc3c1C(c1ccc(Cl)cc1)n1c(=O)c4ccccc4c(=O)n1-3)CCCC2 (stereo not given)	92.4
Nc1c2c(nc3c1C(c1ccc(Br)cc1)n1c(=O)c4ccccc4c(=O)n1-3)CCCC2 (stereo not given)	95.7
Nc1c2c(nc3c1C(c1ccc(F)cc1)n1c(=O)c4ccccc4c(=O)n1-3)CCCC2 (stereo not given)	75.9
COc1ccccc1C1c2c(nc3c(c2N)CCCC3)-n2c(=O)c3ccccc3c(=O)n21 (stereo not given)	87.3

* * *

PROTOCOL_DESCRIPTION: in vitro
CONDITION_DESCRIPTION: human, HepG2 cells
Description: Cytotoxicity against human HepG2 cells assessed as cell viability at 1 uM after 24 hrs by MTT assay relative to control
In this section, each of the compounds is paired with its reported viability at 24 h, 1 µM.

COMPOUND	viability at 24 h, 1 µM
Nc1c2c(nc3c1C(c1ccc(F)cc1)n1c(=O)c4ccccc4c(=O)n1-3)CCCC2 (stereo not given)	91.2%
COc1ccccc1C1c2c(nc3c(c2N)CCCC3)-n2c(=O)c3ccccc3c(=O)n21 (stereo not given)	96.3%
Nc1c2c(nc3c1C(c1ccc(Br)cc1)n1c(=O)c4ccccc4c(=O)n1-3)CCCC2 (stereo not given)	99.8%
Nc1c2c(nc3c1C(c1cccc(F)c1)n1c(=O)c4ccccc4c(=O)n1-3)CCCC2 (stereo not given)	93.5%
Nc1c2c(nc3c1C(c1ccc(Cl)cc1)n1c(=O)c4ccccc4c(=O)n1-3)CCCC2 (stereo not given)	98.6%

* * *

PROTOCOL_DESCRIPTION: in vitro
CONDITION_DESCRIPTION: human, HepG2 cells
Description: Cytotoxicity against human HepG2 cells assessed as cell viability at 100 uM after 24 hrs by MTT assay relative to control

COMPOUND	viability at 24 h, 100 µM / %
COc1ccccc1C1c2c(nc3c(c2N)CCCC3)-n2c(=O)c3ccccc3c(=O)n21 (stereo not given)	86.4
Nc1c2c(nc3c1C(c1ccc(Cl)cc1)n1c(=O)c4ccccc4c(=O)n1-3)CCCC2 (stereo not given)	91.3
Nc1c2c(nc3c1C(c1cccc(F)c1)n1c(=O)c4ccccc4c(=O)n1-3)CCCC2 (stereo not given)	74.8
Nc1c2c(nc3c1C(c1ccc(F)cc1)n1c(=O)c4ccccc4c(=O)n1-3)CCCC2 (stereo not given)	71.4
Nc1c2c(nc3c1C(c1ccc(Br)cc1)n1c(=O)c4ccccc4c(=O)n1-3)CCCC2 (stereo not given)	92.8

* * *

PROTOCOL_DESCRIPTION: in vitro
CONDITION_DESCRIPTION: human, HepG2 cells
Description: Cytotoxicity against human HepG2 cells assessed as cell viability at 300 uM after 24 hrs by MTT assay relative to control
Sorting guide: entries reporting viability at 24 h, 300 µM beneath 80% go in the yes (1) pile, the rest go in the no (0) pile.

MOLECULE	CLASSIFICATION
Nc1c2c(nc3c1C(c1cccc(F)c1)n1c(=O)c4ccccc4c(=O)n1-3)CCCC2 (stereo not given)	yes (1)
Nc1c2c(nc3c1C(c1ccc(Cl)cc1)n1c(=O)c4ccccc4c(=O)n1-3)CCCC2 (stereo not given)	no (0)
COc1ccccc1C1c2c(nc3c(c2N)CCCC3)-n2c(=O)c3ccccc3c(=O)n21 (stereo not given)	no (0)
Nc1c2c(nc3c1C(c1ccc(Br)cc1)n1c(=O)c4ccccc4c(=O)n1-3)CCCC2 (stereo not given)	no (0)
Nc1c2c(nc3c1C(c1ccc(F)cc1)n1c(=O)c4ccccc4c(=O)n1-3)CCCC2 (stereo not given)	yes (1)

* * *

Reported IC50 for target or system Acetylcholinesterase (Electrophorus electricus), by entry.
EXPERIMENTAL_READOUT: IC50 (nM)

MOLECULE	REPORTED_MEASUREMENT
Nc1c2c(nc3c1C(c1ccc(Br)cc1)n1c(=O)c4ccccc4c(=O)n1-3)CCCC2 (stereo unspecified)	80
Nc1c2c(nc3c1C(c1ccccc1Cl)n1c(=O)c4ccccc4c(=O)n1-3)CCCC2 (stereo unspecified)	592
Nc1c2c(nc3c1C(c1ccc(Cl)cc1)n1c(=O)c4ccccc4c(=O)n1-3)CCCC2 (stereo unspecified)	60
CC1c2c(nc3c(c2N)CCCC3)-n2c(=O)c3ccccc3c(=O)n21 (stereo unspecified)	2150
Nc1c2c(nc3c1C(c1cccc([N+](=O)[O-])c1)n1c(=O)c4ccccc4c(=O)n1-3)CCCC2 (stereo unspecified)	140
Nc1c2c(nc3c1C(c1ccccc1[N+](=O)[O-])n1c(=O)c4ccccc4c(=O)n1-3)CCCC2 (stereo unspecified)	280
Cc1ccc(C2c3c(nc4c(c3N)CCCC4)-n3c(=O)c4ccccc4c(=O)n32)cc1 (stereo unspecified)	100
COc1ccccc1C1c2c(nc3c(c2N)CCCC3)-n2c(=O)c3ccccc3c(=O)n21 (stereo unspecified)	49
Nc1c2c(nc3c1C(c1cccc(Br)c1)n1c(=O)c4ccccc4c(=O)n1-3)CCCC2 (stereo unspecified)	271
COc1cc(OC)cc(C2c3c(nc4c(c3N)CCCC4)-n3c(=O)c4ccccc4c(=O)n32)c1 (stereo unspecified)	3370
CCCCCC1c2c(nc3c(c2N)CCCC3)-n2c(=O)c3ccccc3c(=O)n21 (stereo unspecified)	612
Nc1c2c(nc3c1C(c1cccc(F)c1)n1c(=O)c4ccccc4c(=O)n1-3)CCCC2 (stereo unspecified)	23
Nc1c2c(nc3c1C(c1ccccc1)n1c(=O)c4ccccc4c(=O)n1-3)CCCC2 (stereo unspecified)	614
Cc1cccc(C2c3c(nc4c(c3N)CCCC4)-n3c(=O)c4ccccc4c(=O)n32)c1 (stereo unspecified)	467
CCCC1c2c(nc3c(c2N)CCCC3)-n2c(=O)c3ccccc3c(=O)n21 (stereo unspecified)	1630
Nc1c2c(nc3c1C(c1ccccc1Br)n1c(=O)c4ccccc4c(=O)n1-3)CCCC2 (stereo unspecified)	599
Nc1c2c(nc3c1C(c1ccc([N+](=O)[O-])cc1)n1c(=O)c4ccccc4c(=O)n1-3)CCCC2 (stereo unspecified)	310
Nc1c2c(nc3c1C(c1cccc(O)c1)n1c(=O)c4ccccc4c(=O)n1-3)CCCC2 (stereo unspecified)	160
Cc1ccccc1C1c2c(nc3c(c2N)CCCC3)-n2c(=O)c3ccccc3c(=O)n21 (stereo unspecified)	193
Nc1c2c(nc3c1C(c1ccc(F)cc1)n1c(=O)c4ccccc4c(=O)n1-3)CCCC2 (stereo unspecified)	69
Nc1c2c(nc3c1C(c1ccccc1F)n1c(=O)c4ccccc4c(=O)n1-3)CCCC2 (stereo unspecified)	618

* * *

PROTOCOL_DESCRIPTION: in vitro
CONDITION_DESCRIPTION: human, HepG2 cells
Description: Cytotoxicity against human HepG2 cells assessed as cell viability at 25 uM after 24 hrs by MTT assay relative to control
In this section, each of the molecules is paired with its reported viability at 24 h, 25 µM.

MOLECULE	UNITS_TEXT	viability at 24 h, 25 µM
Nc1c2c(nc3c1C(c1ccc(F)cc1)n1c(=O)c4ccccc4c(=O)n1-3)CCCC2 (stereo not given)	%	80
COc1ccccc1C1c2c(nc3c(c2N)CCCC3)-n2c(=O)c3ccccc3c(=O)n21 (stereo not given)	%	90.2
Nc1c2c(nc3c1C(c1ccc(Br)cc1)n1c(=O)c4ccccc4c(=O)n1-3)CCCC2 (stereo not given)	%	96.4
Nc1c2c(nc3c1C(c1ccc(Cl)cc1)n1c(=O)c4ccccc4c(=O)n1-3)CCCC2 (stereo not given)	%	94.4
Nc1c2c(nc3c1C(c1cccc(F)c1)n1c(=O)c4ccccc4c(=O)n1-3)CCCC2 (stereo not given)	%	82.7

* * *

PROTOCOL_DESCRIPTION: in vitro
CONDITION_DESCRIPTION: human, HepG2 cells
Description: Cytotoxicity against human HepG2 cells assessed as cell viability at 5 uM after 24 hrs by MTT assay relative to control

MOLECULE	UNITS_TEXT	viability at 24 h, 5 µM
Nc1c2c(nc3c1C(c1ccc(Br)cc1)n1c(=O)c4ccccc4c(=O)n1-3)CCCC2 (stereo not given)	%	98.3
Nc1c2c(nc3c1C(c1ccc(Cl)cc1)n1c(=O)c4ccccc4c(=O)n1-3)CCCC2 (stereo not given)	%	96.2
COc1ccccc1C1c2c(nc3c(c2N)CCCC3)-n2c(=O)c3ccccc3c(=O)n21 (stereo not given)	%	95
Nc1c2c(nc3c1C(c1ccc(F)cc1)n1c(=O)c4ccccc4c(=O)n1-3)CCCC2 (stereo not given)	%	87.5
Nc1c2c(nc3c1C(c1cccc(F)c1)n1c(=O)c4ccccc4c(=O)n1-3)CCCC2 (stereo not given)	%	90.9

* * *

In this section, each of the molecules is paired with its reported IC50.
STUDY_TARGET: Cholinesterase (Equus caballus)
Sequence (P81908 whole entry): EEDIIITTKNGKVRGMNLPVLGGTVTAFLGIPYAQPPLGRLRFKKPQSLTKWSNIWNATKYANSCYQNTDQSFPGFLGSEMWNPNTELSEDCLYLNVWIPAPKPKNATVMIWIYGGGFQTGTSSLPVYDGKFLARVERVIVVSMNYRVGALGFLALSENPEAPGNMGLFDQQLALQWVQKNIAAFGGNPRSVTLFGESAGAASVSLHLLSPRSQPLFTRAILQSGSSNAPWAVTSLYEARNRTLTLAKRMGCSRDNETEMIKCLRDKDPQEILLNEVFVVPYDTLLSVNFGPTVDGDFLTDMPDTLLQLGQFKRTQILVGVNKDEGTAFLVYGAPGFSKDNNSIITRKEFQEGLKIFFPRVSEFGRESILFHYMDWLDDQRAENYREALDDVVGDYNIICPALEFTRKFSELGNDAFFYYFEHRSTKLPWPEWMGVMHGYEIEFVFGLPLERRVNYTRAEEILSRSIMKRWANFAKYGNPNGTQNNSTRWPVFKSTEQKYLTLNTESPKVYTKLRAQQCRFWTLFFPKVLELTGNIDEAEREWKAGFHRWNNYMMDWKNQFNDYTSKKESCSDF
PROTOCOL_DESCRIPTION: Inhibition of equine serum BuChE using butyrylthiocholine iodide as substrate preincubated for 10 mins followed by substrate addition measured for 6 mins by Ellman's method

MOLECULE	IC50
Cc1ccccc1C1c2c(nc3c(c2N)CCCC3)-n2c(=O)c3ccccc3c(=O)n21 (configuration not stated)	> 100 µM
Nc1c2c(nc3c1C(c1ccccc1)n1c(=O)c4ccccc4c(=O)n1-3)CCCC2 (configuration not stated)	> 100 µM
Nc1c2c(nc3c1C(c1ccc(Cl)cc1)n1c(=O)c4ccccc4c(=O)n1-3)CCCC2 (configuration not stated)	96.2 µM
COc1ccccc1C1c2c(nc3c(c2N)CCCC3)-n2c(=O)c3ccccc3c(=O)n21 (configuration not stated)	93.3 µM
CCCC1c2c(nc3c(c2N)CCCC3)-n2c(=O)c3ccccc3c(=O)n21 (configuration not stated)	> 100 µM
Nc1c2c(nc3c1C(c1cccc(Br)c1)n1c(=O)c4ccccc4c(=O)n1-3)CCCC2 (configuration not stated)	> 100 µM
COc1cc(OC)cc(C2c3c(nc4c(c3N)CCCC4)-n3c(=O)c4ccccc4c(=O)n32)c1 (configuration not stated)	> 100 µM
